Each item that follows carries a reported Kd.
Target: TxtE (Streptomyces scabiei)
Construct: wild type, pET28b construct, Ni-NTA purified
Sequence (C9ZDC6 1-406): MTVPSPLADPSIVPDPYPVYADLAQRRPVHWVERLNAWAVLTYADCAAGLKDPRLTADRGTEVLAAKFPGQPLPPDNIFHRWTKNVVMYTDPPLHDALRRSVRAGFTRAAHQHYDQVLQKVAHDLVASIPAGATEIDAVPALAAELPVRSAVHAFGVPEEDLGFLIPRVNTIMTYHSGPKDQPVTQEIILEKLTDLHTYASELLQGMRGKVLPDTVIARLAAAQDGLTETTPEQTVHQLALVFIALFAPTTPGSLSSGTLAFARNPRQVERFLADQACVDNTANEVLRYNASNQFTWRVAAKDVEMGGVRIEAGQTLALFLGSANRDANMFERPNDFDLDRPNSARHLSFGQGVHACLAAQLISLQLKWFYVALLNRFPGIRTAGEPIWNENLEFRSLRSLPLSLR
Experiment: UV-Vis difference spectroscopy (Type I shift) titration of Trp analogues to 1.5 µM purified P450 in 25 mM Tris-HCl, pH 8.0, fitted to Michaelis-Menten type equation; at least three repeats.
Format: binding
Details: n = 3
Procedure: The ferric heme of enzymes was then saturated by bubbling carbon monoxide (Airgas) and the spectra of the saturated enzyme solutions were recorded. Sodium dithionite solution (30 μL, 0.5 M) was then added to reduce ferric ion, and reduced spectra were taken subsequently. […] Data were further analyzed by Excel. […] The changes in absorbance (ΔA) were determined by subtracting the absorbance at ~420 nm from that at ~390 nm. […]
Provide a numeric answer, followed by its unit.

Cc1cccc2[nH]cc(CC(N)C(=O)O)c12 (racemic) = 10 µM
NC(Cc1c[nH]c2cc(F)ccc12)C(=O)O (racemic) = 73 µM
N[C@@H](Cc1c[nH]c2ccc(F)cc12)C(=O)O = 84 µM

Moving on to the next molecule.
Reported Kd for TxtE (Streptomyces scabiei), given NC(Cc1c[nH]c2cccc(F)c12)C(=O)O (racemic) ?
190 µM
